Data provenance is PubChem BioAssay AID1159506.

Test: Identification of proteins required for the processing of the EWS-FLI1 nascent transcript;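 further: robust z of luciferase light less the median z of siRNAs with the same seed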
Details: TC32 Ewing sarcoma NR0B1-luc vs CMV-luc, 48 h; screened at 20 nM (by protocol)
Over roughly 59,000 sequences, the read-out has its median near -0.00055; the lowest 2% begin near -2. Shown is part of a subset that was picked to be rich in the lowest values.
Mark each entry Yes if its seed-corrected z-score sits below -0.3, and No for all others.

# example entries with known answers
AUAGUAAGCAGCCUUCUGC against HOXD3 ... Yes
GCUUGCACGACUCACAGAC against DEFB105A ... No
UCCAGUUGCACUUCUGUCC against CGREF1 ... Yes

# TODO verify seed-corrected z-score < -0.3 strictly for this sequence: UUGAGUAUUCCGCUCGGGC against EDAR No

Hi there! Is seed-corrected z-score for UUAUGAACCCUGGAGCUCC against ADRB3 below -0.3, do you know? No

Is seed-corrected z-score of UCAUUGUCUUCUAUCAAUC against FYN strictly below -0.3? Yes

Does the reported seed-corrected z-score of UGAACGUCCCGUCUGAGUG against SCT stay below -0.3? Yes

I'd appreciate it if you could check whether UCUUUGAGCAGCUUCCAGC against SOX4 has seed-corrected z-score smaller than -0.3. Yes

Input UAGUUGUUCAGCGAGGUCC against CEP250 ; condition: seed-corrected z-score strictly below -0.3. Does it hold? No

---

Assay: Identification of proteins required for the processing of the EWS-FLI1 nascent transcript;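 further: robust z of luciferase light less the median z of siRNAs with the same seed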
Conditions: TC32 Ewing sarcoma NR0B1-luc vs CMV-luc, 48 h; screened at 20 nM (by protocol)
Method: Ewing sarcoma (ES) cells depend on the EWS-FLI1 fusion transcription factor for cell survival. […] Luciferase activity was assessed 48 hours post siRNA-transfection. Twenty microl of serum-free media containing Lipofectamine RNAiMax (0.05 microl) was added to wells containing siRNA (0.8 pmol). […] Luciferase expression was measured using OneGlo (Promega, Madison, WI). […]
Over roughly 59,000 sequences, the read-out has its median near -0.00055; the lowest 2% begin near -2. The entries come from a sample that favours the lowest values as a whole.
ASSAY METRIC: seed-corrected z-score

Quick request: seed-corrected z-score for each listed item, please.
1. AUAUGAUUCCCAAUUAAUG against TMEM119
2. UUCCUGCUUGCCUCUAUGG against USP17L9P
3. AUGAUGUUCCUUGAAGUUC against DHRS2
4. UCUCUGCUCAAUGUUUUCU against LBH
5. UUGGGUCAAUCCAUUUCUC against C10orf55
6. UGAUGUCUACAAUAUCACC against RPL21
7. UUAGCUAGAGUUUUCAACC against MLLT11

1.74
-0.281
-0.594
-2.25
0.749
-2.69
0.312

Below is a list of sequences. For each, state its recorded seed-corrected z-score.
1. AAAGGACUGAUGUCUAACC against DHX15
2. UGGUUAUUAACCACGAAAC against DACH2
3. AGGCUGAUGACUCCUAUCC against SSTR3
4. UCUACUAUCGGCUUAUAGC against 11-Sep
5. AAUUCUUUUUGUCUGGAUC against PRSS35

1: 0.0405; 2: -2.55; 3: 0.317; 4: -0.114; 5: 0.405

---

Assay: Identification of proteins required for the processing of the EWS-FLI1 nascent transcript;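 further: robust z of luciferase light less the median z of siRNAs with the same seed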
Conditions: TC32 Ewing sarcoma NR0B1-luc vs CMV-luc, 48 h; screened at 20 nM (by protocol)
In all, about 59,000 sequences were measured (the read-out: median about -0.00055, lowest 2% from about -2 on). Only a selection was taken, and the lowest values are over-represented in it overall.
ASSAY METRIC: seed-corrected z-score

AACUCUAUCUUGUAAAGGC against ZKSCAN3 ... 0.0258
UUCGAUAUUAGGGUAGCGG against SNRNP200 ... -1.21
AUCGAUCUAGUUUAAUUCC against DGKE ... -0.537
UGUCAUAUACGCUCCAUAC against EYA4 ... -0.104
UCCCAGACUUUGACCAUGC against WDR38 ... -2

Measured seed-corrected z-score, AACUCCGUCAGUUCCUUCC against FAM167A : 0.463

---

Assay: Identification of proteins required for the processing of the EWS-FLI1 nascent transcript;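 further: robust z of luciferase light less the median z of siRNAs with the same seed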
Conditions: TC32 Ewing sarcoma NR0B1-luc vs CMV-luc, 48 h; screened at 20 nM (by protocol)
In all, about 59,000 sequences were measured (the read-out: median about -0.00055, lowest 2% from about -2 on). Shown is part of a subset that was picked to be rich in the lowest values.
ASSAY METRIC: seed-corrected z-score
Answers are plain numbers.

The following sequences have reported results that may help.
AAACUGCUCGCUGUCAUUC against NCDN ... -2.2
UGAUGUACUGUGGAAGGUC against MAST3 ... -1.59
AUCUUUAACCCGAAAGGUC against STRC ... -3.57
UUUGCAAUGACACGAAGCC against APOL4 ... 0.249
UCUGCUUGGAAAUAUCUCG against GRSF1 ... -4.11
UCGUUUUUGACUACCAGGG against PHKB ... 0.853
AACAUCUCCAAUGAUAGGG against NR0B2 ... -2.16
UCUGUCUCCGCUUGGAGUG against FOS ... 0.622
UAUUUCCAUCGGAUGAUGC against GJD3 ... -0.0376
UACUGGUAAAAGGUGUUCC against C6orf58 ... 0.5

Each sequence below has a recorded value; state its seed-corrected z-score.
1. UUAGUCUUCCCGGAUUGCC against ADAR
2. UUUAGAGCGAGUGGUUAGC against PPHLN1
3. AGAAGCAUCAUGGAGGUAG against COX14

1. 0.696
2. 0.884
3. -1.26

---

Assay: Identification of proteins required for the processing of the EWS-FLI1 nascent transcript;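 further: robust z of luciferase light less the median z of siRNAs with the same seed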
Conditions: TC32 Ewing sarcoma NR0B1-luc vs CMV-luc, 48 h; screened at 20 nM (by protocol)
The full ranking holds about 59,000 sequences; the median of the read-out is about -0.00055, and the lowest 2% start at about -2. This is one part of a sample in which the lowest values are shown more often than they occur.
ASSAY METRIC: seed-corrected z-score

UCAGGAUGAUGUGUGGGAU against KRTAP5-11 ... -1.11

Would you mind listing seed-corrected z-score for each of the following sequences?
1. UAUGUAACUUUGAUGAGAG against CEACAM22P
2. UUUCAUGCACCAACGGAUC against ABHD2

1: 0.0194; 2: -2.24

Would you be so kind as to report seed-corrected z-score for each listed record?
1. UGAUGCACCAUCACAGUCU against SUSD6
2. AUGACUUUUAGUGUAAUCC against LOC439994

1. 0.212
2. -2.2

Provide the reported seed-corrected z-score of each entry below, same order.
1. UGUUCUUGUAUUUCGCUUG against ZBED9
2. UACAUGCUCCGCACAGUCC against NOTCH1
3. UUCCGGAUAGCCUACAUCC against USP36
4. UAGUAAAUGAACGAAGGCG against MAD2L1
5. UUCUGCUUCCGGUAAAUGC against SH3TC1

-0.528
-0.17
-0.445
0.0839
-0.467

// for each sequence below, give its seed-corrected z-score
1. UACAUUGUGAGAUCCCUGG against C17orf78
2. AAUGAGAAUAAAGUCUACC against OR51A4

1. -2.15
2. -2.31

---

Assay: Identification of proteins required for the processing of the EWS-FLI1 nascent transcript;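 further: robust z of luciferase light less the median z of siRNAs with the same seed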
Conditions: TC32 Ewing sarcoma NR0B1-luc vs CMV-luc, 48 h; screened at 20 nM (by protocol)
Whole data set: some 59,000 sequences, median the read-out near -0.00055, cut for the lowest 2% near -2. This excerpt belongs to a sample that is enriched for the lowest values.
Output met for seed-corrected z-score not less than -0.4; output not met otherwise.

AAAGUUGCUACAGCUGUCA against SH3BP5 ... not met
UCAUAGUCCGCGAUCACCU against EDF1 ... met
UCGGAUGUAUCUGAGGUGC against DCAF8L1 ... met

hey, is seed-corrected z-score for this one >= -0.4? AGUAUAUCACACUUGAUCC against COL4A4 met

# bool: seed-corrected z-score of AUAGGCAGCAGUGCACUCG against 5-Sep >= -0.4 not met

Does seed-corrected z-score meet or surpass -0.4 for UUAGCUUCCUCCAAAAUGC against LOC342293 ? met

---

Test: Identification of proteins required for the processing of the EWS-FLI1 nascent transcript;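 further: robust z of luciferase light less the median z of siRNAs with the same seed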
Conditions: TC32 Ewing sarcoma NR0B1-luc vs CMV-luc (EWS-FLI1 target promoter against control promoter), 48 h; screened at 20 nM (by protocol)
Over roughly 59,000 sequences, the read-out has its median near -0.00055; the lowest 2% begin near -2. This is one part of a sample in which the lowest values are shown more often than they occur.
I'd appreciate it if you could supply seed-corrected z-score values for the items below.
Give bare numbers.

Some entries whose results are on file:
UGCCUUUGGAGGAUCUGCG against HLA-F ... -0.923
AAAUCGACUACUGAGAACC against CUL9 ... 0.396
AGAGGUCUGAGCACAGUUC against HSPA6 ... -1.34
UUCAUGGUAGGAAAGGUCU against DXO ... 1.33
ACAUAUAUAAGAAUAUCGG against ARL3 ... -0.177

Go through the list and state seed-corrected z-score for each entry.
1. UUCUUUAAGUCAAAGUUUC against FEZF2
2. UUGUCUUCCUCCAUUGUCG against TSGA10IP

1. -1.32
2. -0.628
